test system: Bacteroides dorei; assay: growth AUC relative to DMSO control (median of replicates) (fraction); higher = more growth (less inhibition), active = hit call of the paper; conditions: 20 µM; 24 h
growth AUC values for the compounds below.
Assay Endpoint: growth AUC

• O=S(=O)(c1ccc(Cl)cc1)c1cc(Cl)c(Cl)cc1Cl = 0.91
• CCOP(=O)(SC(C)CC)N1CCSC1=O (stereo not given) = 1
• CCC(C)Nc1c([N+](=O)[O-])cc(C(C)(C)C)cc1[N+](=O)[O-] (stereo not given) = 0.98
• COc1cc(OC)nc(NC(=O)NS(=O)(=O)c2ncccc2C(=O)N(C)C)n1 = 0.957
• CCN(CC)c1nc(C)cc(OP(=S)(OC)OC)n1 = 1

----------
test system: Bacteroides dorei; assay: growth AUC relative to DMSO control (median of replicates) (fraction); higher = more growth (less inhibition), active = hit call of the paper; conditions: 20 µM; 24 h
As shown below, each of these compounds has a reported growth AUC value.
Assay Endpoint: growth AUC

* O=C(Nc1ccccc1)Nc1ccnc(Cl)c1 | 0.977
* CCOP(=S)(NC(C)CC)Oc1cc(C)ccc1[N+](=O)[O-] (stereo not drawn) | 1.01
* CCOP(=S)(OCC)Oc1nc(Cl)n(C(C)C)n1 | 1.01

----------
growth AUC for assorted compounds
tested on: Parabacteroides distasonis; assay: growth AUC relative to DMSO control (median of replicates) (fraction); higher = more growth (less inhibition), active = hit call of the paper; details: 20 µM; 24 h
Assay Endpoint: growth AUC

• CCS(=O)(=O)Oc1ccc2c(c1)C(C)(C)CO2 = 1.03 (inactive)
• COC(=O)c1ccccc1S(=O)(=O)NC(=O)Nc1nc(C)cc(C)n1 = 1.04 (inactive)
• CNC(=O)O/N=C(\C)SC = 0.986 (inactive)
• COP(=O)(OC)Oc1ccc(S(C)=O)c(C)c1 (stereo not drawn) = 1.01 (inactive)
• OC[C@@H](O)[C@H]1O[C@@H]2O[C@H](C(Cl)(Cl)Cl)O[C@@H]2[C@H]1O (mixture of isomers) = 0.903 (inactive)
• O=C(O)c1cc(Cl)ccc1Cl = 0.978 (inactive)
• ClC1=C(Cl)[C@]2(Cl)[C@@H]3[C@@H]4C[C@@H]([C@H]5O[C@@H]45)[C@@H]3[C@@]1(Cl)C2(Cl)Cl = 1.05 (inactive)
• O=C(O)C(F)(F)C(F)(F)C(F)(F)C(F)(F)C(F)(F)C(F)(F)C(F)(F)C(F)(F)F = 1.18 (inactive)
• O=C(O)COc1ccc(Cl)cc1Cl = 0.988 (inactive)
• O=P(Oc1ccccc1)(Oc1ccccc1)Oc1ccccc1 = 0.594 (active)
• Cc1cc(Cl)ccc1O[C@H](C)C(=O)O = 0.961 (inactive)
• O=C(NC(=O)c1c(F)cccc1F)Nc1ccc(CO/N=C(\c2ccc(Cl)cc2)C2CC2)cc1 = 1.04 (inactive)
• CC(Cc1ccc(C(C)(C)C)cc1)CN1C[C@@H](C)O[C@@H](C)C1 (stereo partly drawn) = 0.985 (inactive)
• CC1(C)CN=C(NN=C(/C=C/c2ccc(C(F)(F)F)cc2)/C=C/c2ccc(C(F)(F)F)cc2)NC1 = 1.06 (inactive)
• CC(C)(C)C(O)/C(=C/c1ccc(Cl)cc1Cl)n1cncn1 (mixture of isomers) = 0.938 (inactive)
• CC(=O)O.CC(=O)O.CC(=O)O.NC(N)=NCCCCCCCCNCCCCCCCCN=C(N)N = 0.213 (active)
• O=C1C=CC(=O)C=C1 = 1.03 (inactive)
• CCOP(=O)(OCC)Oc1ccc(S(C)(=O)=O)cc1 = 1.11 (inactive)
• CCc1nn(C)c(C(=O)NCc2ccc(C(C)(C)C)cc2)c1Cl = 0.991 (inactive)
• CNC(=O)O/N=C/C(C)(C)S(C)=O (stereo not drawn) = 1.02 (inactive)
• CSc1nc(NC(C)C)nc(NC(C)C)n1 = 1.02 (inactive)
• COC(=O)[C@@H](C)N(C(=O)Cc1ccccc1)c1c(C)cccc1C = 0.948 (inactive)
• CCCOCCN(C(=O)CCl)c1c(CC)cccc1CC = 0.848 (inactive)
• CCOP(=O)(OCC)ON1C(=O)c2cccc3cccc(c23)C1=O = 0.619 (active)
• O=[N+]([O-])c1c(Cl)c(Cl)cc(Cl)c1Cl = 0.986 (inactive)
• O=S(=O)(c1ccccc1)c1ccccc1 = 1.02 (inactive)
• Cc1cnc2c(C(=O)O)c(Cl)ccc2c1 = 0.967 (inactive)
• CC1(C)C(C=C(Cl)Cl)[C@@H]1C(=O)O[C@@H](C#N)c1ccc(F)c(Oc2ccccc2)c1 (stereo partly drawn) = 1.03 (inactive)

----------
system: Odoribacter splanchnicus; assay: growth AUC relative to DMSO control (median of replicates) (fraction); higher = more growth (less inhibition), active = hit call of the paper; conditions: 20 µM; 24 h
# key: entry, value: growth AUC
Assay Endpoint: growth AUC

* Oc1ccc(Cl)c(Cl)c1Cl | 0.978
* Cc1cc(OC(=O)N(C)C)nn1C(=O)N(C)C | 0.935
* Cc1ccccc1C(=O)Nc1cccc(OC(C)C)c1 | 1.03
* CC1(C)C(/C=C(\Cl)C(F)(F)F)C1C(=O)OC(C#N)c1cccc(Oc2ccccc2)c1 (stereo not given) | 0.878
* Oc1ccccc1Cl | 0.906

----------
test system: Bifidobacterium longum subsp. longum; experiment: growth AUC relative to DMSO control (median of replicates) (fraction); higher = more growth (less inhibition), active = hit call of the paper; conditions: 20 µM; 24 h
Assay Endpoint: growth AUC

- COC(=O)c1ccccc1S(=O)(=O)NC(=O)Nc1nc(C)cc(C)n1: 1.1
- CNC(=O)Oc1ccccc1C(C)C: 0.965
- COP(=S)(OC)SC(CC(=O)O)C(=O)O (configuration not stated): 1.01
- CNC(=O)Oc1cc(C)c(S(C)(=O)=O)c(C)c1: 0.985
- Cc1cc(C2CC2)nc(Nc2ccccc2)n1: 1.04
- O=c1oc2ccccc2c(O)c1C(CC(O)c1ccc(-c2ccc(Br)cc2)cc1)c1ccccc1 (configuration not stated): 0.747
- N#Cc1nn(-c2c(Cl)cc(C(F)(F)F)cc2Cl)c(N)c1S(=O)(=O)C(F)(F)F: 0.936
- COP(=S)(OC)Oc1cc(Cl)c(Br)cc1Cl: 0.971
- CCOP(=S)(NC(C)CC)Oc1cc(C)ccc1[N+](=O)[O-] (configuration not stated): 0.965
- O=c1oc2ccccc2c(O)c1C1CC(c2ccc(-c3ccccc3)cc2)Cc2ccccc21 (configuration not stated): 0.886
- O=S1(=O)OCC2C(CO1)C1(Cl)C(Cl)=C(Cl)C2(Cl)C1(Cl)Cl (configuration not stated): 1.11
- O=C(O)c1cc(Oc2ccc(C(F)(F)F)cc2Cl)ccc1[N+](=O)[O-]: 1.06
- O=C(O)CCl: 0.938
- CCN(CC)c1c([N+](=O)[O-])cc(C(F)(F)F)c(N)c1[N+](=O)[O-]: 0.913
- COc1nc(NC(C)C)nc(NC(C)C)n1: 1.02
- CCNc1nc(NCC)nc(SC)n1: 1.08
- O=C(Nc1ccc(F)cc1F)c1cccnc1Oc1cccc(C(F)(F)F)c1: 1
- CC(C)(C)C(O)C(Cc1ccc(Cl)cc1Cl)n1cncn1 (mixture of isomers): 1.04
- COCC(C)N(C(=O)CCl)c1c(C)csc1C (configuration not stated): 0.841
- CC(C)(C)[C@@H](O)[C@H](Oc1ccc(Cl)cc1)n1cncn1: 0.998
- O=[N+]([O-])C(Br)(CO)CO: 0.991
- CNC(=O)Oc1cccc2c1OC(C)(C)C2: 0.996
- CSC1=N[C@@](C)(c2ccccc2)C(=O)N1Nc1ccccc1: 1.04
- COc1cc(OC)nc(NC(=O)NS(=O)(=O)c2ncccc2C(F)(F)F)n1: 1
- CCOC(=O)c1ccccc1S(=O)(=O)NC(=O)Nc1nc(Cl)cc(OC)n1: 1.4
- CN(C)c1nc(=O)n(C2CCCCC2)c(=O)n1C: 1.01
- COc1nc(C)nc(NC(=O)NS(=O)(=O)c2ccccc2CCC(F)(F)F)n1: 0.966
- Clc1ccc(Cl)c(Cl)c1Cl: 0.99
- CN(C)C(CSS(=O)(=O)c1ccccc1)CSS(=O)(=O)c1ccccc1: 1.02
- CN(C)C(=S)SSC(=S)N(C)C: 0.974
- [CH3][Hg][Cl]: 0.868
- Clc1ccccc1Cl: 1.11
- CNC(=O)Oc1cc(C)c(SC)c(C)c1: 1.34
- CN1COCN(Cc2cnc(Cl)s2)/C1=N/[N+](=O)[O-]: 0.984
- CC(=O)O.CCCCCCCCCCCCN=C(N)N: 0.917
- CC(=O)O.NC(N)=NCCCCCCCCNCCCCCCCCN=C(N)N: 0.136
- COP(=S)(OC)Oc1cc(Cl)c(Cl)cc1Cl: 0.947
- CCc1nn(C)c(C(=O)NCc2ccc(Oc3ccc(C)cc3)cc2)c1Cl: 0.81
- O=C1C(Cl)=C(Cl)C(=O)C(Cl)=C1Cl: 0.969
- CC(C)N(C(=O)COc1nnc(C(F)(F)F)s1)c1ccc(F)cc1: 1.03
- CCOP(=S)(OCC)SCS(=O)(=O)CC: 0.951
- CNC(=O)Oc1cccc2c1OC(C)(C)O2: 1.06

Origin of values: the supplement of paper PMC12669032
